B1: Intersectin-2, residues 1129 to 1183; numbered along this chain, Q9NZM3 (parent)
chain: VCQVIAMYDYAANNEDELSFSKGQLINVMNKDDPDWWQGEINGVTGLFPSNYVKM

variants of: B1; assay: abundance fitness (aPCA) (normalised: wild type 0, dead -1); higher = more abundant; growth selection in yeast, the domain comes from the species named; settings: Homo sapiens
Consider the following variants; for each one, report its abundance fitness.
Answers are plain numbers.

Look over these answered cases.
1. VCQVIAMYDYAANNEAELSFSKGQLINVMNKDDPDWWQGEINGVTGLFPSNYVKM ... 0.004
2. VCQVIAMYDYAANNEDELHFSKGQLINVMNKDDPDWWQGEINGVTGLFPSNYVKM ... -0.123
3. VCQVIAMYDYAANNEDELSFSKGQLINVMNKDDPDWWQGEINGVTGHFPSNYVKM ... -0.061
4. VCQVIAMYDYAANNEDELSFSKGQLINVMNKDDPDWWQGEINEVTGLFPSNYVKM ... -0.032
5. VCQVIAMYDYAANNHDELSFSKGQLINVMNKDDPDWWQGEINGVTGLFPSNYVKM ... 0
6. VCQVIAMYDYAANNEDELSFSKGQLINVMNKDDPDWTQGEINGVTGLFPSNYVKM ... -0.854
7. VCQVEAMYDYAANNEDELSFSKGQLINVMNKDDPDWWQGEINGVTGLFPSNYVKM ... -0.062
8. VCQVIAMYDYAANNEDELSFSKGQLINVMNKDDMDWWQGEINGVTGLFPSNYVKM ... -0.015
9. VCQVIAMYDYAANNEDELSFSKYQLINVMNKDDPDWWQGEINGVTGLFPSNYVKM ... -0.047
10. VCQVIAMYDYAANNEDELSFSKGQLINVMNKDDPDWWQGEINGVTGLFPSNYVKR ... -0.088

Hi team, please reply with abundance fitness for each item in this list.
1. VCQVIAMYDYAANNEDELSFSKGQLINVMNKDDPDWWQGEIAGVTGLFPSNYVKM
2. VCQVIAMYDYAANNEDELSFSKGMLINVMNKDDPDWWQGEINGVTGLFPSNYVKM
3. VCQVIAMYDYAANNEDELSFSKGQLINVMNKDDPDWWQEEINGVTGLFPSNYVKM
4. VCQVIAMYDYAANNEDELSFSKGQLINVMNKDDPDWWQAEINGVTGLFPSNYVKM

[-0.013, -0.051, -0.913, -0.699]

For each listed entry, give its abundance fitness.
1. VCQVIAMYDYHANNEDELSFSKGQLINVMNKDDPDWWQGEINGVTGLFPSNYVKM
2. VCQVIAMYDYAANNEDELSFTKGQLINVMNKDDPDWWQGEINGVTGLFPSNYVKM
3. VCQVIAMYDYAANNEDELSFSKGQLINVMNKDDPDWWQGEINGVTGQFPSNYVKM
4. VCQVIAMYDYAANHEDELSFSKGQLINVMNKDDPDWWQGEINGVTGLFPSNYVKM
5. VCQVIAMYDYAANNEDELSFSKGQLINVMNKWDPDWWQGEINGVTGLFPSNYVKM

[0.042, -0.028, -0.019, 0.02, -0.086]

Lab note: each variant below needs its abundance fitness filled in.
1. VCQVIAMYDYAANNEDWLSFSKGQLINVMNKDDPDWWQGEINGVTGLFPSNYVKM
2. VCQVIAMYDYAANNEDELSFSKGQLINVMNKDDPDWWQGEINGVTGLWPSNYVKM
3. VCQVIAMYDYAANNEDELSFSKGQLINVMNKDDPDWWQGEINGVTGLFPSTYVKM

1. -0.322
2. -1
3. -0.034
